- Tested on: EPLC-272H
- assay notes: relative viability (nuclei count vs DMSO), 5 days (fraction); higher = more cells survive
- details: first compound 2.53 µM
Reported relative viability values for a set of molecules
I'd appreciate a reply containing only the number, no unit.

// known answers, use as guide
molecule	parameter measured	numeric value
CCCCCCCCCCCC1=C(O)C(=O)C=C(O)C1=O [Embelin] + COc1cc2c(Oc3ccc(NC(=O)C4(C(=O)Nc5ccc(F)cc5)CC4)cc3F)ccnc2cc1OCCCN1CCOCC1 [Foretinib] (partner 0.25 µM)	relative viability	0.916
CCCCCCCCCCCC1=C(O)C(=O)C=C(O)C1=O [Embelin] + CC1(C)CCC(c2ccc(Cl)cc2)=C(CN2CCN(c3ccc(C(=O)NS(=O)(=O)c4ccc(N[C@H](CCN5CCOCC5)CSc5ccccc5)c(S(=O)(=O)C(F)(F)F)c4)cc3)CC2)C1 [Navitoclax] (partner 0.5 µM)	relative viability	1.21
CCCCCCCCCCCC1=C(O)C(=O)C=C(O)C1=O [Embelin] + C[C@@H](Oc1cc(-c2cnn(C3CCNCC3)c2)cnc1N)c1c(Cl)ccc(F)c1Cl [Crizotinib] (partner 1 µM)	relative viability	1.4

The record that follows has no relative viability shown yet.
Exam item: Name the recorded relative viability for CCCCCCCCCCCC1=C(O)C(=O)C=C(O)C1=O [Embelin] + COc1cccc2cc(-c3nc([C@H]4CC[C@H](C(=O)O)CC4)n4ncnc(N)c34)[nH]c12 [OSI-027] (partner 0.5 µM) .
Marked response: 0.309

* * *

- Test system: EKVX
- assay notes: relative viability (nuclei count vs DMSO), 5 days (fraction); higher = more cells survive
- details: first compound 0.4 µM
parameter measured: relative viability
I'd appreciate a reply containing only the number, no unit.

// known answers, use as guide
compound	relative viability
Clc1ccc(Nc2nnc(Cc3ccncc3)c3ccccc23)cc1 [Vatalanib] + CC1(C)CCC(c2ccc(Cl)cc2)=C(CN2CCN(c3ccc(C(=O)NS(=O)(=O)c4ccc(N[C@H](CCN5CCOCC5)CSc5ccccc5)c(S(=O)(=O)C(F)(F)F)c4)cc3)CC2)C1 [Navitoclax] (partner 0.5 µM)	1
C[C@@H]1CN(CC(=O)Nc2ccc3c(c2)Cc2cccc(-c4cc(=O)cc(N5CCOCC5)o4)c2S3)C[C@H](C)O1 + C[C@@H](Oc1cc(-c2cnn(C3CCNCC3)c2)cnc1N)c1c(Cl)ccc(F)c1Cl [Crizotinib] (partner 1 µM)	1.13
COc1cc(N2CCC(C(N)=O)CC2)ccc1Nc1nc(N)c(Cl)c(Nc2ccccc2S(=O)(=O)C(C)C)n1 [HG-5-88-01] + Cc1cc(Nc2cc(N3CCN(C)CC3)nc(Sc3ccc(NC(=O)C4CC4)cc3)n2)n[nH]1 [Tozasertib] (partner 0.1 µM)	0.374

Exam item: Name the recorded relative viability for C[C@@H]1CN(CC(=O)Nc2ccc3c(c2)Cc2cccc(-c4cc(=O)cc(N5CCOCC5)o4)c2S3)C[C@H](C)O1 + COc1cccc2cc(-c3nc([C@H]4CC[C@H](C(=O)O)CC4)n4ncnc(N)c34)[nH]c12 [OSI-027] (partner 0.5 µM) .
Marked response: 0.712

Exam item: Another: COc1cc(N2CCC(C(N)=O)CC2)ccc1Nc1nc(N)c(Cl)c(Nc2ccccc2S(=O)(=O)C(C)C)n1 [HG-5-88-01] + Nc1ncn([C@H]2C[C@H](O)[C@@H](CO)O2)c(=O)n1 [Decitabine] (partner 2 µM)
Marked response: 0.389

Exam item: Another: C[C@@H]1CN(CC(=O)Nc2ccc3c(c2)Cc2cccc(-c4cc(=O)cc(N5CCOCC5)o4)c2S3)C[C@H](C)O1 + CC1(C)CCC(c2ccc(Cl)cc2)=C(CN2CCN(c3ccc(C(=O)NS(=O)(=O)c4ccc(N[C@H](CCN5CCOCC5)CSc5ccccc5)c(S(=O)(=O)C(F)(F)F)c4)cc3)CC2)C1 [Navitoclax] (partner 0.5 µM)
Marked response: 0.862

Exam item: Another: Clc1ccc(Nc2nnc(Cc3ccncc3)c3ccccc23)cc1 [Vatalanib] + O=C(c1cc(Cc2n[nH]c(=O)c3ccccc23)ccc1F)N1CCN(C(=O)C2CC2)CC1 [Olaparib] (partner 8 µM)
Marked response: 0.851

Exam item: Another: Clc1ccc(Nc2nnc(Cc3ccncc3)c3ccccc23)cc1 [Vatalanib] + N=C(N)NC(=N)NCCc1ccccc1 [Phenformin] (partner 250 µM)
Marked response: 0.205

Exam item: Another: C[C@@H]1CN(CC(=O)Nc2ccc3c(c2)Cc2cccc(-c4cc(=O)cc(N5CCOCC5)o4)c2S3)C[C@H](C)O1 + NC(=O)Nc1cc(-c2cccc(F)c2)sc1C(=O)N[C@H]1CCCNC1 [AZD7762] (partner 0.2 µM)
Marked response: 0.713

Exam item: Another: C[C@@H]1CN(CC(=O)Nc2ccc3c(c2)Cc2cccc(-c4cc(=O)cc(N5CCOCC5)o4)c2S3)C[C@H](C)O1 + CC(C)C[C@H](NC(=O)[C@H](Cc1ccccc1)NC(=O)c1cnccn1)B(O)O [Bortezomib] (partner 0.002 µM)
Marked response: 0.945

Exam item: Another: COc1cc(N2CCC(C(N)=O)CC2)ccc1Nc1nc(N)c(Cl)c(Nc2ccccc2S(=O)(=O)C(C)C)n1 [HG-5-88-01] + O=C(c1cc(Cc2n[nH]c(=O)c3ccccc23)ccc1F)N1CCN(C(=O)C2CC2)CC1 [Olaparib] (partner 8 µM)
Marked response: 0.813
